pIC50: −log10 of the molar value.
Please provide measured pIC50 for the entries that follow.

# input Hi! What's the reported pIC50 for COc1cc(-n2cnc(Nc3nc(N4CCC[C@H]4CO)c4c(C)nn(C5CCOC5)c4n3)c2)cc(OC)c1OC (some centres unmarked) [Compound 446c] on ALK2 (Homo sapiens (Human))?
# output > 7.00

# input Value wanted: pIC50 (ALK2 (Homo sapiens (Human))) of entry COc1cc(F)c(CC(=O)N2CCN(c3nc(Nc4cn(-c5ccccc5)cn4)c4ccsc4n3)CC2)c(F)c1 [Compound 45d]
# output 6.00 to 7.00

# input Item: COc1cc(-n2cnc(Nc3nc(N4CCC[C@H]4C(N)=O)nc4c3CCN(Cc3ccccc3)C4)c2)cc(OC)c1OC [Compound 154a] Test system: ALK2 (Homo sapiens (Human)) Read-out: pIC50 Value: ?
# output > 7.00

# input Reported pIC50 for ALK2 (Homo sapiens (Human)), given COc1cc(-n2cnc(Nc3nc(N4CCC[C@H]4C(=O)NCC4CC4)nc4ccoc34)c2)cc(OC)c1OC [Compound 248a] ?
# output > 7.00

# input Param readout = pIC50; param system = ALK2 (Homo sapiens (Human)); param query = COc1cc(-n2cnc(Nc3nc(N4CCC[C@H]4CO)c4c(C)nn([C@H]5C[C@@H](N)C5)c4n3)c2)cc(OC)c1OC [Compound 444c] ; response: value
# Sequence (Q04771 21-509): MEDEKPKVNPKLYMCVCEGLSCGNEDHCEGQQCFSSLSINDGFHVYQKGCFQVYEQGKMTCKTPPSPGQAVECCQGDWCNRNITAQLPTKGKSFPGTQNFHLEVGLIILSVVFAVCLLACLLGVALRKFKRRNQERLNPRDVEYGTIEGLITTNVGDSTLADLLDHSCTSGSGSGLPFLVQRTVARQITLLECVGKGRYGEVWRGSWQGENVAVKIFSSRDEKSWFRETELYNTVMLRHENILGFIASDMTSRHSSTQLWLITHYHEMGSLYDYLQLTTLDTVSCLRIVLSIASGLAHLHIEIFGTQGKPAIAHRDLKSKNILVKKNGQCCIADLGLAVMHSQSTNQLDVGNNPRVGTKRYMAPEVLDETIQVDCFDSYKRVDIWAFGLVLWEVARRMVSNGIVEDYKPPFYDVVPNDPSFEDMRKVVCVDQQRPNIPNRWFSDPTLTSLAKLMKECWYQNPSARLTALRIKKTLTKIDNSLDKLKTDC
# output > 7.00

# input Request - read-out pIC50 | tested on ALK2 (Homo sapiens (Human)) | compound COc1cc(-n2cnc(Nc3nc(N4CC[C@@H](CO)C4)nc4ccoc34)c2)cc(OC)c1OC [Compound 246a]
# output > 7.00

# input Form entry - test system: ALK2 (Homo sapiens (Human)); read-out: pIC50; compound: COc1cc(-n2cnc(Nc3nc(N4CCC[C@H]4C(N)=O)nc4scnc34)c2)cc(OC)c1OC [Compound 158b]
# output > 7.00

# input # value lookup — system ALK2 (Homo sapiens (Human)), readout pIC50, item COc1cc(-n2cnc(Nc3ccc4ccccc4c3)c2)cc(OC)c1OC [Compound 178b]
# output 6.00 to 7.00

# input GET /values?readout=pIC50&system=ALK2 (Homo sapiens (Human))&item= COc1cc(-n2cnc(Nc3nc(N4CCC[C@H]4C(N)=O)nc4c3CCNC4)c2)cc(OC)c1OC [Compound 185b]
# output > 7.00

# input Query the reported pIC50 for ALK2 (Homo sapiens (Human)); item: COc1cc(-n2cnc(Nc3cc(N4CCC[C@H]4CO)c4ccccc4n3)c2)cc(OC)c1OC [Compound 368a]
# output 6.00 to 7.00

# input Test system ALK2 (Homo sapiens (Human)); read-out pIC50; what value for COc1cc(-n2cnc(Nc3nc(N4CCC[C@H]4CO)c4c(C)nn(C(C)C)c4n3)c2)cc(OC)c1OC [Compound 456c] ?
# output > 7.00

# input Report pIC50 for COc1cc(-n2cnc(Nc3nc(N4CCC[C@H]4C(N)=O)nc4cc(F)ccc34)c2)cc(OC)c1OC [Compound 266c] tested on ALK2 (Homo sapiens (Human)).
# output > 7.00

# input Lab request: please report pIC50 under test system ALK2 (Homo sapiens (Human)) for COc1cc(-n2cnc(Nc3nc(N4CCC[C@H]4C(N)=O)nc4[nH]ccc34)c2)cc(OC)c1OC [Compound 142b]
# output > 7.00

# input Could you share what pIC50 was measured for COc1cc(-n2cnc(Nc3nc(N4CCC[C@H]4C(N)=O)c4cccn4n3)c2)cc(C(N)=O)c1OC [Compound 230f] , tested on ALK2 (Homo sapiens (Human))?
# output < 6.00

# input Form field - read-out: pIC50; system: ALK2 (Homo sapiens (Human)); submitted item: COc1cc(C)cc(-n2cnc(Nc3nc(N4CCC[C@H]4CO)c4cccn4n3)c2)c1 [Compound 257d]
# output 6.00 to 7.00

# input Form: Entry = COc1cc(-n2cnc(Nc3nc(N4CCC[C@H]4CO)c4ccsc4n3)c2)cc(OC)c1OC [Compound 133b] | System = ALK2 (Homo sapiens (Human)) | pIC50 = ____
# output > 7.00

# input Form field: pIC50 recorded for COc1cc(-n2cnc(Nc3nc(N4CCC[C@@H]4CO)nc4c3CCC4)c2)cc(OC)c1OC [Compound 290a] with ALK2 (Homo sapiens (Human)) (enter value)
# output > 7.00

# input Return pIC50 measured with ALK2 (Homo sapiens (Human)) given this compound: OC[C@@H]1CCCN1c1nc(Nc2cn(C3CCC3)cn2)c2cccn2n1 [Compound 43a]
# output > 7.00

# input Please provide the recorded pIC50 for COc1cc(-n2cnc(Nc3nc(N4CCC[C@@H]4CO)nn4cccc34)c2)cc(OC)c1OC [Compound 238a] , tested on ALK2 (Homo sapiens (Human)).
# output > 7.00

# input What measured pIC50 is associated with COc1cc(-n2cnc(Nc3cc(C(=O)N4CCC[C@H]4C(N)=O)cc4ccoc34)c2)cc(OC)c1OC [Compound 411d] on ALK2 (Homo sapiens (Human))?
# output 6.00 to 7.00

# input API: value(readout= pIC50, system= ALK2 (Homo sapiens (Human)), query= COc1cc(-n2cnc(Nc3nc(N4CCC[C@H]4C(N)=O)nc4cc(C)ccc34)c2)cc(OC)c1OC [Compound 392a] )
# output > 7.00

# input So what pIC50 did Cc1cc(OC(F)(F)F)cc(-n2cnc(Nc3nc(N4CCC[C@H]4CO)c4cccn4n3)c2)c1 [Compound 263d] get with ALK2 (Homo sapiens (Human))?
# output < 6.00

# input # value lookup — system ALK2 (Homo sapiens (Human)), readout pIC50, item COc1cc(-n2cnc(Nc3nc(N4CCC[C@H]4CO)nn4c(CN5CCNCC5)ccc34)c2)cc(OC)c1OC [Compound 122a]
# output > 7.00

# input Form field - read-out: pIC50; system: ALK2 (Homo sapiens (Human)); submitted item: COc1cc(-n2cnc(Nc3nc(N4CCC[C@@H]4CO)nc4cc(N5CCN(C)CC5)ccc34)c2)cc(OC)c1OC [Compound 383a]
# output > 7.00

# input Kindly state the measured pIC50 obtained for COc1cc(-n2cnc(Nc3nc(N4CCC[C@@H]4CO)nc4c3CCCC4)c2)cc(OC)c1OC [Compound 295b] with ALK2 (Homo sapiens (Human)).
# output > 7.00

# input Provide the documented pIC50 with ALK2 (Homo sapiens (Human)) as the system for COc1cc(-n2cnc(Nc3nc4c(c(N5CCC[C@H]5C(N)=O)n3)CCN(Cc3ccccc3)C4)c2)cc(OC)c1OC [Compound 166b]
# output > 7.00

# input # query: pIC50 | item COc1cc(-n2cnc(Nc3nc(N4CCC[C@@H]4C(N)=O)c4cccn4n3)c2)cc(OC)c1OC [Compound 176b] | system: ALK2 (Homo sapiens (Human))
# output 6.00 to 7.00

# input What pIC50 appears in the records for this compound with ALK2 (Homo sapiens (Human))? COc1cc(-n2cnc(Nc3nc(N4CCC[C@@H]4C(N)=O)nc4[nH]ccc34)c2)cc(OC)c1OC [Compound 314b]
# output > 7.00

# input Test system ALK2 (Homo sapiens (Human)); read-out pIC50; what value for COc1cc(-n2cnc(Nc3nc(N4CC[C@H](O)C4)nc4ccoc34)c2)cc(OC)c1OC [Compound 237a] ?
# output > 7.00

* * *

pIC50: −log10 of the molar value.
pIC50, ALK2 (Homo sapiens (Human), UniProt Q04771), per-entry values.

# input Please look up its pIC50: COc1cc(-n2cnc(Nc3nc(N4CCC[C@H]4CO)nn4cccc34)c2)cc(OC)c1OC [Compound 57c]
# output > 7.00

# input Sample COc1cc(-n2cnc(Nc3nc(N4CCC[C@H]4C(N)=O)c4cc[nH]c4n3)c2)cc(OC)c1OC [Compound 173c] — what was its pIC50?
# output > 7.00

# input # lookup: pIC50 of COc1cc(-n2cnc(Nc3nc(-c4ccccc4C(N)=O)nc4sccc34)c2)cc(OC)c1OC [Compound 157a]
# output > 7.00

# input Would you kindly share the measured pIC50 for COc1cc(-n2cnc(Nc3nc(N4CCC[C@H]4C(N)=O)nc4c3COC4)c2)cc(OC)c1OC [Compound 311a] ?
# output > 7.00

# input What does the data say about its pIC50? Entry: COc1cc(-n2cnc(Nc3nc(N4CCCC4)c4cccn4n3)c2)cc(OC)c1OC [Compound 168b]
# output 6.00 to 7.00

# input compound: COc1cc(-n2cnc(Nc3nc(N4CCC[C@H]4CO)c4c(C)nn(CC5CCCCC5)c4n3)c2)cc(OC)c1OC [Compound 438c] ; wanted: its pIC50
# output > 7.00

# input What value of pIC50 has been recorded for this entry: Cn1cnc(Nc2nc(N3CCC[C@H]3c3ccccc3)nn3cccc23)c1 [Compound 15a]
# output > 7.00

# input Sample OC[C@@H]1CCCN1c1nc(Nc2nccs2)c2cccn2n1 [Compound 455c] — what was its pIC50?
# output 6.00 to 7.00

# input Name the recorded pIC50 for COc1cc(-n2cnc(Nc3nc(N4CCC[C@@H]4CO)nc4c3COC4)c2)cc(OC)c1OC [Compound 282a] .
# output > 7.00

# input // lookup pIC50 for CN1CCN(c2nc(Nc3cn(-c4ccccc4)cn3)c3cccn3n2)CC1 [Compound 35a]
# output 6.00 to 7.00

# input Look at this compound and give its reported pIC50. CNC(=O)c1cc(C2CC2)cc(-n2cnc(Nc3nc(N4CCC[C@H]4CO)nn4cccc34)c2)c1 [Compound 468g]
# output < 6.00

# input Reported pIC50 for COc1cc(-n2cnc(Nc3nc(N4CCC[C@H]4CO)c4ccc(-c5cccc(NS(C)(=O)=O)c5)cc4n3)c2)cc(OC)c1OC [Compound 363b] : what is it?
# output > 7.00

# input Given OCc1cc2c(Nc3cn(-c4ccccc4)cn3)nc(N3CCC[C@H]3CO)nc2s1 [Compound 70f] , state its recorded pIC50.
# output > 7.00

# input Suppose we examine the compound OC[C@@H]1CCCN1c1nc(Nc2cn(-c3cn(C4CCC4)cn3)cn2)c2cccn2n1 [Compound 450d] ; what pIC50 value has been reported?
# output 6.00 to 7.00

# input I have this compound here, COc1cc(-n2cnc(Nc3nc(N4CCC[C@H]4C(N)=O)c4cccnc4n3)c2)cc(OC)c1OC [Compound 203b] , and I need its recorded pIC50.
# output 6.00 to 7.00

# input Sample COc1cc(-n2cnc(Nc3nc(N4CCC[C@H]4C(N)=O)nc4sc(CN5CCN(c6ccccn6)CC5)cc34)c2)cc(OC)c1OC [Compound 408b] — what was its pIC50?
# output > 7.00

# input I'd like to know its pIC50. The compound in question is COc1cc(-n2cnc(Nc3nc(N4CCC[C@H]4CO)nc4cnn(C)c34)c2)cc(OC)c1OC [Compound 316a]
# output 6.00 to 7.00

# input Name the reported pIC50 value associated with the compound COc1cc(-n2cnc(Nc3nc4c(c(N5CCCC5)n3)CN(Cc3ccccc3)CC4)c2)cc(OC)c1OC [Compound 224b]
# output > 7.00

# input Quick one: pIC50 for OC[C@@H]1CCCN1c1nc(Nc2cn(C3CCCCC3)cn2)c2cccn2n1 [Compound 28c] ?
# output 6.00 to 7.00

# input Any idea what its pIC50 is? The compound is COc1cc(-n2cnc(Nc3nc(N4CCC[C@H]4CO)c4cc[nH]c4n3)c2)cc(OC)c1OC [Compound 159c]
# output > 7.00

# input Can you look up the measured pIC50 of COc1cc(-n2cnc(Nc3ncnn4cccc34)c2)cc(OC)c1OC [Compound 187b] for me?
# output > 7.00

# input Reported pIC50, compound COC(=O)c1cc(OC)cc(-n2cnc(Nc3nc(N4CCC[C@H]4CO)nn4cccc34)c2)c1 [Compound 416e] : ____
# output > 7.00

# input Record request: pIC50 value, item Cn1cnc(Nc2nc(N3CCCC3c3ccccn3)nn3cccc23)c1 (stereo not shown)
# output > 7.00

# input Using the record for COc1cc(-n2cnc(Nc3nc(N4CCC[C@@H]4CO)c4ccccc4n3)c2)cc(OC)c1OC [Compound 327b] , report its pIC50.
# output > 7.00

# input Given COc1cc(-n2cnc(Nc3nc4c(c(N5CCC[C@H]5CO)n3)CCN(Cc3ccc(C#N)cc3)C4)c2)cc(OC)c1OC [Compound 219a] , state its recorded pIC50.
# output > 7.00

# input Report pIC50 for OC[C@@H]1CCCN1c1nc(Nc2cn(-c3ccc4c(c3)OCO4)cn2)c2cccn2n1 [Compound 425e] please.
# output > 7.00

# input For the compound shown here, OC[C@@H]1CCCN1c1nc(Nc2cn(-c3ccccn3)cn2)c2cccn2n1 [Compound 66c] , give the reported pIC50.
# output > 7.00

# input pIC50 lookup needed for COc1cc(-n2cnc(Nc3nc(N4CCC[C@H]4CO)nc4cc(N5CCNCC5)ccc34)c2)cc(OC)c1OC [Compound 376b] , thanks.
# output > 7.00

# input What value of pIC50 has been reported for the following compound? c1ccc(C2CCCN2c2nc(Nc3cn(C4CCC4)cn3)c3cccn3n2)nc1 (stereo not shown) [Compound 37c]
# output > 7.00

# input Endpoint output: pIC50 of COc1cc(-n2cnc(Nc3cc4ccccc4c(N4CCC[C@H]4CO)n3)c2)cc(OC)c1OC [Compound 346c] . Value?
# output 6.00 to 7.00

# input Sample COc1cc(-c2cnc(Nc3nc(N4CCC[C@H]4CO)c4cccn4n3)s2)cc(OC)c1OC [Compound 476a] — what was its pIC50?
# output > 7.00
